# subject-of-test: T1, mouse Claudin-6 (CLDN6) (mouse, UniProt Q9Z262 1-219)
# T1 construct: whole, on cells; GFP fusion on engineered HEK293T cells; also called Mouse CLDN6; murine CLDN6
# T1 sequence (looked up): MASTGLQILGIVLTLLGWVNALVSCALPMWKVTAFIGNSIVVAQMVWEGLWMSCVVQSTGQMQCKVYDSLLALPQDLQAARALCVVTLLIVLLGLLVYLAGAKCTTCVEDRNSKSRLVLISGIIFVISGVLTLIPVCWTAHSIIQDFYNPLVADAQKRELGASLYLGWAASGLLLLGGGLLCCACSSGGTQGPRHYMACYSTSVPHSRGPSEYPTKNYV
# test-summary: FACS titration of labelled mAb on HEK293T mouse CLDN6-mGFP cells
readout-label: EC50 (nM)
Please state the figure in nM; there is no need to write the unit.

*Q* Which EC50 reading was recorded for the binder AB7 (antibody, V domains shown, full-length IgG (ExpiCHO)) VH: EVQLQQSGPELVKPGASMKISCKASGYSFTGYTMNWVKQSHGKNLEWIGLINPYNGGTNYNQKFKGKATLTVDKSSSTAYMELLSLTSEDSAVYYCARGVYDYDGFTYWGQGTLVTVSA VL: QIVLTQSPAIMSASLGDRVTMTCTASSSVSSSYLHWYQQKPGSSPKLWIYSTSNLASGVPARFSGSGSGTSYSLTISSMEAEDAATYYCHQYHRSPPTFGSGTKLEIK ?
*A* 1550
